Record: GI50 reported on SK-MEL-5 melanoma.

Known value: SK-MEL-5 melanoma GI50 of the molecule Cc1c(Sc2ccccc2)[n+](=O)c2cc(Cl)c(Cl)cc2n1[O-] equals 54.1 µM

Known value: SK-MEL-5 melanoma GI50 of the molecule O=S(=O)(NCCNc1nccc(-c2c(-c3ccc(F)cc3)nc3sccn23)n1)c1ccccc1 equals 2.45 µM

Known value: SK-MEL-5 melanoma GI50 of the molecule Cc1nc(Nc2nc3ccccc3o2)nc(-c2cccc([N+](=O)[O-])c2)c1C(=O)Nc1ccc(F)c(Cl)c1 equals 1.71 µM

Known value: SK-MEL-5 melanoma GI50 of the molecule COc1cc2c3c(n(CCCN=[N+]=[N-])c(=O)c2cc1OC)-c1ccc(N(C)C)cc1C3=O equals 87.1 µM

Known value: SK-MEL-5 melanoma GI50 of the molecule COc1ccc(Nc2c3ccccc3nc3[nH]c4ccccc4c23)cc1 equals 5.52 µM

----------
RESULT_TYPE: GI50

Known value: UACC-62 melanoma GI50 of the compound O=S(=O)(NCCNc1nccc(-c2c(-c3ccc(F)cc3)nc3sccn23)n1)c1ccccc1 equals 5.13 µM

Known value: UACC-62 melanoma GI50 of the compound Cc1cccc2c(N)c3ccccc3nc12 equals 1.56 µM

Known value: UACC-62 melanoma GI50 of the compound CC(=O)Oc1ccc(C(c2ccc(OC(C)=O)cc2)c2ccccn2)cc1 equals 21.2 µM

Known value: UACC-62 melanoma GI50 of the compound CC1(C)OC(=O)C=C([O-])O1.CC1(C)OC(=O)C=C([O-])O1.CC[O-].CC[O-].[Ti+4] equals > 100 µM

Known value: UACC-62 melanoma GI50 of the compound O=C1NCCS(=O)(=O)/C1=C\C=C\c1cccc(C(F)(F)F)c1 equals 1.46 µM

----------
For each record, write down the corresponding TGI.
System: CCRF-CEM leukemia
Assay: NCI tumour cell line growth inhibition, 48 h
Express the result in µM but write the number alone.

Measured TGI, CCN(CC)CCO/N=C1/C=C2CCC3C(CC[C@@]4(C)C3CC[C@]4(C)O)[C@@]2(C)CC1 (stereo partly specified) : 3.97

Measured TGI, S=c1[nH]nc(NNc2ccccc2)n1Nc1ccccc1 : 42

Measured TGI, CSc1cccc(NC(=O)OC2CCCCCCCCCCC2)c1 : 45.5

Measured TGI, Cc1nc(Nc2nc3ccccc3o2)nc(-c2cccc([N+](=O)[O-])c2)c1C(=O)Nc1ccc(F)c(Cl)c1 : 24.2

Measured TGI, CC1=C(/C=C/C(C)=C/C=C/C(C)=C/CO)C(C)(C)CCC1 : 46.4

Measured TGI, FC1=C2CCCCCC2SC1(F)F (stereo unspecified) : 18.7

Measured TGI, COc1cc(C2C(Cl)C(=O)N2NC(=O)c2ccc(NC(C)=O)cc2OC)ccc1O (stereo unspecified) : 14.6

Measured TGI, C/C(=N\NC(=S)NCc1ccccc1)c1nc2ncccc2[nH]1 : 19.2

Measured TGI, COc1ccc(CCNCCCC2c3ccccc3-c3ccccc32)cc1OC : 49

Measured TGI, CC[C@@H]1/C=C/C=C/C[C@H](C)[C@@H](O)[C@](C)(O)C(=O)[C@H](C)[C@@H](O)[C@H](C)C(=O)[C@H](C)[C@@H](O)[C@H](C)/C=C/C(=O)O[C@H]2[C@@H](C)[C@@H](CC1)O[C@@]1(CC[C@@H](C)[C@@H](CC(C)O)O1)[C@@H]2C (stereo partly specified) : 6.05

Measured TGI, CC(C)(C)OC(=O)N(CCCCNCc1ccc2ccccc2c1)CCCNCc1ccc2ccccc2c1 : 2.86

Measured TGI, CC(=O)c1cc(C)n2c1CS[C@@H]2c1ccccc1 : 60.9

Measured TGI, N#CC1=C(Cl)NC(Cl)=C(C#N)C1c1c(Cl)cccc1Cl : 54.5

Measured TGI, CC1=NN=C(N)NC1=CC(Sc1ccc(Cl)cc1)c1c(O)ccc2ccccc12 (stereo unspecified) : 31.5

Measured TGI, C/C=C(\C)C(=O)N[C@H]1C(O)C[C@]2(C)C3CC[C@@]4(C)C(CC[C@@H]4C(C)N(C)C)C3CCC2C1O (stereo partly specified) : 75.8

Measured TGI, C/C(=N\Nc1nc2ccccc2s1)c1cc(C)ncn1 : 4.2

Measured TGI, COc1cc(/C=C/C(=O)c2cccnc2Nc2ccc(F)cc2)cc(OC)c1OC : 9.87

Measured TGI, c1ccc2c(c1)C1=NCCN1c1ccccc1-2 : 5.98

----------
Tested on: OVCAR-4 ovarian
Experiment: NCI tumour cell line growth inhibition, 48 h
For each record, write down the corresponding TGI.

Measured TGI, O=C1OC(c2ccccc2)=N/C1=C\c1cccc(F)c1 : 94.9 µM

Measured TGI, CC1(C)O[C@@H](CBr)C[C@H](C[C@H]2C[C@@H](O)C[C@@H](CCOCc3ccccc3)O2)O1 : 41.7 µM

Measured TGI, COc1ccc(Nc2cc(C)nc(N3CCN(c4ccnc5cc(Cl)ccc45)CC3)n2)cc1 : > 100 µM

Measured TGI, Cc1cccc(Nc2cnc(N)nc2N)c1 : > 100 µM

Measured TGI, COc1ccc(OC)c(Nc2nc(-c3c(C)nc4sccn34)cs2)c1 : > 100 µM

Measured TGI, CCOC(=O)/C(C#N)=C/c1ccc2c(c1)CC1(C2)Cc2cc(CC)c(C(C)O)cc2C1 (stereo not given) : 49 µM

Measured TGI, COc1cc2c(c(OC3OC(CO)C(O)C(O)C3O)c1)C(=O)CC(c1ccc(O)cc1)O2 (stereo not given) : > 100 µM

Measured TGI, O=C1NC(=O)C2C1N(Cc1ccccc1)C(=O)N2Cc1ccccc1 (stereo not given) : > 100 µM

Measured TGI, O=C(O)/C=C/C(=O)N1C/C(=C\c2ccccc2)C(=O)/C(=C/c2ccccc2)C1 : 16.4 µM

Measured TGI, CN(C)C(=S)/N=c1\ss/c(=N\S(=O)(=O)c2ccccc2)n1N(C)C : > 100 µM

----------
Tested on: HCC-2998 colon
Assay: NCI tumour cell line growth inhibition, 48 h
RESULT_TYPE: TGI

Known value: HCC-2998 colon TGI of the compound S=c1[nH]nc(NNc2ccccc2)n1Nc1ccccc1 equals > 100 µM

Known value: HCC-2998 colon TGI of the compound CCc1nc(N)nc(N)c1-c1ccc(Cl)c(N=CN(C)C)c1 equals > 100 µM

Known value: HCC-2998 colon TGI of the compound C/C(=N\NC(=S)NCc1ccccc1)c1nc2ncccc2[nH]1 equals 68.4 µM

Known value: HCC-2998 colon TGI of the compound Oc1ccc(Cl)cc1CNc1nc2ccccc2[nH]1 equals 32 µM

Known value: HCC-2998 colon TGI of the compound CN(C)Cc1cc(N=Nc2ccc(Cl)cc2)ccc1OC(=O)c1ccccc1 equals 31 µM

Known value: HCC-2998 colon TGI of the compound O=C(O)c1ccccc1NC(=O)C1CCCCC1 equals > 100 µM

Known value: HCC-2998 colon TGI of the compound Cc1nc(Nc2nc3ccccc3o2)nc(-c2cccc([N+](=O)[O-])c2)c1C(=O)Nc1ccc(F)c(Cl)c1 equals > 100 µM

Known value: HCC-2998 colon TGI of the compound CC1(C)O[C@@H](CBr)C[C@H](C[C@H]2C[C@@H](O)C[C@@H](CCOCc3ccccc3)O2)O1 equals 53.7 µM

Known value: HCC-2998 colon TGI of the compound Cc1cc(-c2nc3cccc(F)c3s2)ccc1N equals > 100 µM

Known value: HCC-2998 colon TGI of the compound O=C(/C=C(\O)c1ccccc1)c1cc(-c2ccccc2)n(-c2ccccc2)n1 equals > 100 µM

Known value: HCC-2998 colon TGI of the compound O=C(CC1C(=O)c2ccccc2C1=C1C(=O)c2ccccc2C1=O)c1ccccc1 (configuration not stated) equals > 100 µM

Known value: HCC-2998 colon TGI of the compound CCOP(=O)(OCC)/C(C#N)=C/c1ccnc2ccccc12 equals > 100 µM

----------
For each record, write down the corresponding GI50.
System: A549 NSCLC
Test: NCI tumour cell line growth inhibition, 48 h

Measured GI50, CC(C)COC(=O)c1ccc2[nH]c(O)c(C=Nc3ccc(S(N)(=O)=O)cc3)c2c1 : 1.74 µM

Measured GI50, CN(/N=N/c1nc(OCc2ccccc2)c2[nH]cnc2n1)C(=O)Oc1ccc([N+](=O)[O-])cc1 : 12 µM

Measured GI50, Cn1cnc([N+](=O)[O-])c1Sc1ncn[nH]1 : > 100 µM

Measured GI50, C/C=C(\C)C(=O)N[C@H]1C(O)C[C@]2(C)C3CC[C@@]4(C)C(CC[C@@H]4C(C)N(C)C)C3CCC2C1O (some centres undefined) : 9.54 µM

----------
System: HT29 colon
Test: NCI tumour cell line growth inhibition, 48 h
RESULT_TYPE: TGI

Measured TGI, O=C(Nc1ccn(CCI)c(=O)n1)c1ccccc1 : > 100 µM

Measured TGI, O=C(N/N=C\C(F)(F)F)c1ccncc1 : > 100 µM

Measured TGI, CC1OC(OC2C(Oc3cc(O)c4c(c3)O[C@H](c3ccc(O)cc3)CC4=O)OC(CO)C(O)C2O)C(O)C(O)C1O (stereo not given in full) : > 100 µM

Measured TGI, CC1=C(C(=O)Nc2ccc([N+](=O)[O-])cc2)C(c2ccccc2F)C(C(=O)Nc2ccc([N+](=O)[O-])cc2)=C(C)N1 : 95.2 µM

Measured TGI, CCN(CC)CCN(C(=O)c1ccc(F)cc1)c1ccccc1N : > 10 µM

Measured TGI, COC1OC2COC(c3ccccc3)OC2C(O)C1Br (stereo not given) : > 100 µM

Measured TGI, O=[N+]([O-])c1ccc(S(=O)(=O)Cc2ccccc2)c2nonc12 : 36.7 µM

Measured TGI, C=C1[C@@H]([C@@]2(C)C=CC(=O)C(C)(C)[C@@H]2CC(=O)OC)CC[C@@]2(C)C(c3ccoc3)OC(=O)[C@H]3O[C@]132 (stereo not given in full) : > 100 µM

Measured TGI, Cc1cccc(C(C)(C)C)c1NC(=O)CC1Sc2ccccc2NC1=O (stereo not given) : > 100 µM

Measured TGI, Cn1c2ccccc2c(=O)c2[nH]c3ccccc3c21 : > 100 µM

FYI, the data here is from PubChem BioAssay (NCI).
